- Assay system: T1, FZD6 cysteine-rich domain (CRD), MYC-tagged and GPI-anchored on CHO cells (human, UniProt O60353 20-146, GPI anchor)
- T1 construct: also called FZD6 CRD; CHO-myc-FZDGPI; not shown: MYC tag and GPI anchor signal
- T1 sequence: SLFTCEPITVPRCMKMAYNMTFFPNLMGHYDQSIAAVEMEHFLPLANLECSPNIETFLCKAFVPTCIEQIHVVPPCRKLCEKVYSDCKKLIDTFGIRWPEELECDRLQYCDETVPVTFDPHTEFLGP
- Assay info: immunofluorescence, CHO-CRD cells

Binder	binding result
Fab-2913 (Fab, V domains shown, Fab; also called Fv-2913) VH: EVQLVESGGGLVQPGGSLRLSCAASGFNISYSSIHWVRQAPGKGLEWVASIYPYSSSTSYADSVKGRFTISADTSKNTAYLQMNSLRAEDTAVYYCARYGYYGLDYWGQGTLVTVSS VL: DIQMTQSPSSLSASVGDRVTITCRASQSVSSAVAWYQQKPGKAPKLLIYSASSLYSGVPSRFSGSRSGTDFTLTISSLQPEDFATYYCQQWGVSHYLFTFGQGTKVEIK	no binding
Fab-2902 (Fab, V domains shown, Fab; also called Fv-2902) VH: EVQLVESGGGLVQPGGSLRLSCAASGFNISYYYIHWVRQAPGKGLEWVASISSSSSSTSYADSVKGRFTISADTSKNTAYLQMNSLRAEDTAVYYCARGALDYWGQGTLVTVSS VL: DIQMTQSPSSLSASVGDRVTITCRASQSVSSAVAWYQQKPGKAPKLLIYSASSLYSGVPSRFSGSRSGTDFTLTISSLQPEDFATYYCQQWYAFGALITFGQGTKVEIK	no binding
Fab-2910 (Fab, V domains shown, Fab) VH: EVQLVESGGGLVQPGGSLRLSCAASGFNISYSYMHWVRQAPGKGLEWVASIYSSSSSTSYADSVKGRFTISADTSKNTAYLQMNSLRAEDTAVYYCARGAMDYWGQGTLVTVSS VL: DIQMTQSPSSLSASVGDRVTITCRASQSVSSAVAWYQQKPGKAPKLLIYSASSLYSGVPSRFSGSRSGTDFTLTISSLQPEDFATYYCQQWYGSHLITFGQGTKVEIK	no binding

This collection of values is drawn from patent US20210253718A1.
